Biological target: FLT (ITD) (Homo sapiens)
Assay: FLT (ITD) enzyme activity (IC50)
Format: biochemical
Details: read-out: FLT (ITD) IC50
I'd be grateful if you could share measured IC50 for these entries.

Exercise: Provide measured IC50 on FLT (ITD) (Homo sapiens) for "CCN1CCN(Cc2cc(-c3ncc4ccc(NC(=O)c5cnoc5C)cc4n3)cc(C(F)(F)F)c2)CC1" please.
Key: 3 to 10 µM

Exercise: Provide measured IC50 on FLT (ITD) (Homo sapiens) for "Cc1oncc1C(=O)Nc1ccc2cnc(-c3cc(OC4CCN(C)CC4)cc(C(F)(F)F)c3)nc2c1" please.
Key: 3 to 10 µM

Exercise: Provide measured IC50 on FLT (ITD) (Homo sapiens) for "Cc1oncc1C(=O)Nc1ccc2cnc(-c3ccc(Cl)c(Cl)c3)nc2c1" please.
Key: > 10 µM

Exercise: Provide measured IC50 on FLT (ITD) (Homo sapiens) for "COc1ccc(/C=C/c2ncc3ccc(NC(=O)c4cnoc4C)cc3n2)cc1" please.
Key: > 10 µM

Exercise: Provide measured IC50 on FLT (ITD) (Homo sapiens) for "Cc1oncc1C(=O)Nc1ccc2cnc(-c3cc(N4CCOCC4)cc(C(F)(F)F)c3)nc2c1" please.
Key: 3 to 10 µM

Exercise: Provide measured IC50 on FLT (ITD) (Homo sapiens) for "Cc1oncc1C(=O)Nc1ccc2cnc(-c3ccc4c(c3)CCO4)nc2c1" please.
Key: > 10 µM

Exercise: Provide measured IC50 on FLT (ITD) (Homo sapiens) for "Cc1oncc1C(=O)Nc1ccc2cnc(-c3ccc(N4CCOCC4)c(C(F)(F)F)c3)nc2c1" please.
Key: > 10 µM
